target: Epidermal growth factor receptor (Homo sapiens); test: EGFR binders on small-molecule microarrays, primary screen, biochemical, small-molecule microarray, 635 nm fluorescence (AID 1104); conditions: EGFR binding, higher = more signal;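 note: score merges 667 nm emission intensity with spot signal to noise over triplicate slides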
Please mark y if the recorded composite z-score is equal to or greater than 0.2, and n if it falls below.

Completed entries (count: 6):
{"compound": "CO[C@@H]1COC(=O)CC=C[C@@H](C)[C@@H]2C=C[C@H](O)[C@@H](COC(=O)[C@H](C)NC(=O)CC=C[C@H]1C)O2", "class.assignment": "y"}
{"compound": "CO[C@H]1O[C@H](CO)[C@@H](OC(=O)Nc2ccc(C#N)cc2)[C@H](OC(=O)c2cc3ccccc3[nH]2)[C@H]1OC(=O)c1cc2ccccc2[nH]1", "class.assignment": "n"}
{"compound": "COc1cccc([C@H]2Oc3ccc(OC)cc3C(=NOC(C)CN3CCCc4nc(C)c(C)cc43)[C@@H]2O)c1 (some centres not stated)", "class.assignment": "y"}
{"compound": "CC(C)[Si]1(C(C)C)O[C@@H](c2ccccc2)c2cc(C3CC3)nc(-c3ccccc3)c21", "class.assignment": "n"}
{"compound": "c1ccc(C2NCCc3c2[nH]c2ccccc32)cc1 (configuration not stated)", "class.assignment": "n"}
{"compound": "O=C(NN=C1C[C@@H](O)[C@@H](O)[C@@H]2[C@@H]3C(=O)N(c4ccc(F)cc4F)C(=O)[C@@H]3CC[C@@H]12)OCc1ccccc1", "class.assignment": "y"}

Is composite z-score at least 0.2? Consider O=C1O[C@@H](c2ccccc2)[C@@H](c2ccccc2)N2[C@@H](c3ccc(OCCO)cc3)[C@]3(C(=O)Nc4ccc(C#CCCO)cc43)[C@@H](C(=O)N3CCCCCCC3)[C@H]12
y

hey, is composite z-score for this one >= 0.2? C[C@H]1CC[C@@H](C(=O)O)N[C@@H]1c1ccc(C#CCN(C)C)cc1
y

Reported composite z-score at or above 0.2? COCCNC(=O)OCC1CCCC2(CC(OC(=O)NCCc3ccc(F)cc3)CC(CCC(=O)N[C@@H](C)C(=O)OC)O2)O1 (some centres not stated)
y

For this compound, is measured composite z-score 0.2 or higher? C#C[C@@H]1Oc2ccccc2S(=O)(=O)N2CCC[C@H]12
y

# bool: composite z-score of CC(C)NC(=O)[C@@H]1c2ccccc2C(=O)N(CC23CC4CC(CC(C4)C2)C3)[C@H]1c1ccc(CO)cc1 >= 0.2
y

Record CO[C@@H]1COC(=O)CC=C[C@@H](C)COC(=O)[C@H](COCc2ccccc2)NC(=O)CC=C[C@H]1C ; criterion: composite z-score no lower than 0.2. Met?
y

Determine whether this compound has composite z-score no lower than 0.2: CC(=O)OC[C@H]1O[C@@H](ON=C[C@@H](C)[C@H](OCc2ccccc2)C(C)C)[C@H](OC(C)=O)[C@@H](OC(C)=O)[C@@H]1OC(C)=O
y
